- Measurement Protocol: Vmax/Km x100 value of the compound
- Type: ADME
Measured Parameter: Vmax / Kmax100
No unit in the answer, only the number.

[Q] State the recorded Vmax / Kmax100 for this entry: NCC(O)c1cccc2ccccc12 (stereo not given)
[A] 1.29

###

- Measurement Protocol: Vmax/Km x100 value of the compound
- Format: ADME
The following compounds are shown together with reported Vmax / Kmax100 values.
No unit in the answer, only the number.

NCC(O)c1ccc(-c2ccccc2)cc1 (centres undefined) :: 5.44
NCC(O)c1cccc(-c2ccccc2)c1 (centres undefined) :: 1.42

[Q] State the recorded Vmax / Kmax100 for this entry: "NC[C@@H](O)c1ccccc1"
[A] 1.62

[Q] Can you check NCC(O)c1ccc2ccccc2c1 (centres undefined) next?
[A] 5.6
